Tested On: cynomolgus Siglec-2/CD22 (Macaca fascicularis)
Sequence (A0A2K5WCZ6 entry or part of it): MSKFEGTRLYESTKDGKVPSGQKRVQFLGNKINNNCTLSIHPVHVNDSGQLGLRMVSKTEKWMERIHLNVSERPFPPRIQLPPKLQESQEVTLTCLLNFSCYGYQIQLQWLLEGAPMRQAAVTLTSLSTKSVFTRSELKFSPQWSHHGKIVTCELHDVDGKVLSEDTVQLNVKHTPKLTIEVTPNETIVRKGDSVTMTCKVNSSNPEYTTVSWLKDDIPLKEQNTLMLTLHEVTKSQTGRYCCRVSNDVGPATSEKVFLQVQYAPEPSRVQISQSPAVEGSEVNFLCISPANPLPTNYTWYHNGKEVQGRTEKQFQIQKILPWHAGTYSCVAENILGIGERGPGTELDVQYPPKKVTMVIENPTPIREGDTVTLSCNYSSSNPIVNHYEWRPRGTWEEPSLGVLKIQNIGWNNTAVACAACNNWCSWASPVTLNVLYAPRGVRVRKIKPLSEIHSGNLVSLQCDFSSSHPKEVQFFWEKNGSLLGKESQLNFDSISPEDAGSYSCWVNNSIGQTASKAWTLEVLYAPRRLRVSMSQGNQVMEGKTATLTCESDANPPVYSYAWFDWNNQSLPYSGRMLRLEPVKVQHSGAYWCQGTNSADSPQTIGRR
Protocol Notes: biochemical
Applied Conditions: SPR, steady-state analysis; read-out: Affinity cyno CD22
pKd: −log10 of the molar value.
Reported pKd is given for each of the following compounds.

// below: answered compounds
Compound	pKd
C#CCOCCOCCO[C@]1(C(=O)O)C[C@H](O)[C@@H](NC(=O)CO)[C@H]([C@H](O)[C@H](O)CNC(=O)c2cccc(O)c2)O1 [Compound 29]	< 5.00
C#CCOc1ccc(CO[C@]2(C(=O)O)C[C@H](O)[C@@H](NC(=O)CO)[C@H]([C@H](O)[C@H](O)CNC(=O)Cc3ccccc3F)O2)cc1 [Compound 165]	5.00 to 6.00

Fill in: pKd of O=C(O)CCOCCOCCOCCOCCNc1c(NCCCCCCO[C@]2(C(=O)O)C[C@H](O)[C@@H](NC(=O)CO)[C@H]([C@H](O)[C@H](O)CNC(=O)Cc3ccc(Cl)cc3)O2)c(=O)c1=O [Compound 154] is ___
> 6.00

So what's the measured pKd for this one? C#CCCOc1ccc(CS[C@]2(C(=O)O)C[C@H](O)[C@@H](NC(=O)CO)[C@H]([C@H](O)[C@H](O)CNC(=O)Cc3ccc(Cl)c(O)c3)O2)cc1 [Compound 131]
> 6.00

Which pKd reading was recorded for the compound C#CCOCCCCCCO[C@]1(C(=O)O)C[C@H](O)[C@@H](NC(=O)C(N)=O)[C@H]([C@H](O)[C@H](O)CNC(=O)Cc2ccc(Cl)cc2)O1 [Compound 223] ?
5.00 to 6.00
